- TEST TARGET: Long-chain-fatty-acid--AMP ligase FadD28 (Mycobacterium tuberculosis)
- Sequence (P9WQ59 whole entry): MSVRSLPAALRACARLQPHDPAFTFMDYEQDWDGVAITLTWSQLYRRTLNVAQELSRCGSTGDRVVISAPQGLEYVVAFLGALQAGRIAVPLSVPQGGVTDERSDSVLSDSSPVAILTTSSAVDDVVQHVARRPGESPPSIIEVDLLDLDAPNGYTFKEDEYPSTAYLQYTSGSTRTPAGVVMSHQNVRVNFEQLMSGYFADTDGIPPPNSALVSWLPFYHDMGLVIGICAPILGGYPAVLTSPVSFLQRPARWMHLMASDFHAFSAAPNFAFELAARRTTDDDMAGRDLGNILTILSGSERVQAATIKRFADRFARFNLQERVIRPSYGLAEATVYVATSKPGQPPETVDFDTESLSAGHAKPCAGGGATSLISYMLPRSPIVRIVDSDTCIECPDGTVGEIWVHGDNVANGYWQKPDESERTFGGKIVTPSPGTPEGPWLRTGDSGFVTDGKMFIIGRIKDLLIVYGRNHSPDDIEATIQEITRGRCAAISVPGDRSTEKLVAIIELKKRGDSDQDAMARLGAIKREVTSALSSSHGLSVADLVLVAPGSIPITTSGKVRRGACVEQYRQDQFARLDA
- ASSAY TEXT: Fluorescence polarization aasay to screen for inhibitors that compete for the binding of FadD28 to a bisubstrate Measured in Biochemical System Using Plate Reader - 2147-01_Inhibitor_Dose_CherryPick_Activity.
- Assay type: functional, Mycobacterium tuberculosis H37Rv
Activity calls are given as the source filed them. The rule behind the calls is not given here.
Give one outcome, nothing more. List: active, inactive

Field: example entries. Status: answers known.
CC1=NN(c2nc(-c3ccc(F)cc3)cs2)C(=O)C1: inactive
O=C(COC(=O)c1ccc(O)cc1O)Nc1cccc2ccccc12: inactive
CCc1nnc(NS(=O)(=O)c2ccc(NC(=O)Nc3ccc(OC)cc3)cc2)s1: active

Request: Outcome logged for `Cc1cccc(NC(=O)CN2C(=O)S/C(=C\c3ccc(O)c([N+](=O)[O-])c3)C2=O)c1` in this assay:
Response: active

Cited source for all entries: ChEMBL document CHEMBL1201862
